# Test system: Plasmodium falciparum
# experiment notes: Antiparasitic activity against Plasmodium falciparum W2 incubated for 48 hrs by flow cytometry based analysis
# Type: functional, organism-based
# condition label: W2, 48 h
experimental endpoint: IC50 (µM)
Numbers only, in µM.

# input API: value(readout= IC50, system= Plasmodium falciparum, query= COc1cc(/C=C/C(=O)c2ccc(NS(=O)(=O)c3cc(Cl)ccc3Cl)cc2)cc(OC)c1OC )
# output 0.48

Next item in the queue.
# input API: value(readout= IC50, system= Plasmodium falciparum, query= O=C(/C=C/c1ccc(F)cc1F)c1ccc(NS(=O)(=O)c2cc(Cl)ccc2Cl)cc1 )
# output 0.67

---

Can you tell me pIC50 for the items I'm about to list?
# Test system: Plasmodium falciparum
# experiment notes: Antimalarial activity against Plasmodium falciparum
# Type: functional, organism-based
Numbers only, as −log10 of the molar value.

A selection of reference data follows.
# input API: value(readout= pIC50, system= Plasmodium falciparum, query= O=C(/C=C/c1ccc2ccccc2c1)c1c[n+]([O-])c2ccccc2[n+]1[O-] )
# output 5.24

# input Also check COc1cc(/C=C/C(=O)c2c[n+]([O-])c3ccccc3[n+]2[O-])cc(OC)c1OC
# output 5.21

Next item in the queue.
# input API: value(readout= pIC50, system= Plasmodium falciparum, query= O=C(/C=C/c1c[nH]c2ccccc12)c1ccccc1O )
# output 5.68

---

# experiment notes: Selectivity index, ratio of EC50 for cytotoxicity against mouse FM3A cells to EC50 for antimalarial activity against Plasmodium falciparum ATCC 30932
# Type: toxicity, cell-based
# condition label: read-out: Ratio EC50
experimental endpoint: selectivity ratio

# input Please report the recorded selectivity ratio for COc1ccc(C(=O)/C=C/c2ccc(OC)c(OC)c2)c(O)c1 .
# output > 3.3

---

# experiment notes: Cytotoxicity against human HepG2 cells
# Format: toxicity, cell-based
experimental endpoint: IC50 (µg/mL)
Answers are plain numbers, in µg/mL.

Each of the following entries comes with a recorded value; kindly state IC50 for each.
1. CCO/C(C)=N/Oc1ccc(C(=O)/C=C/c2cc(OC)c(OC)c(OC)c2)cc1
2. CCO/C(C)=N/Oc1ccc(/C=C/C(=O)c2ccc3ccccc3c2)cc1

# output
20
54
